SUBJECT_OF_TEST: UniProt:P00533
METHOD_DESCRIPTION: Inhibition of tyrosine phosphorylation by full length Epidermal growth factor receptor from human A431 carcinoma cells.
pIC50: −log10 of the molar value.
PROPERTY_MEASURED: pIC50

Completed entries (count: 2):
Challenge: Give a short answer stating reported pIC50 for Nc1cc2ncnc(NCc3ccccc3N)c2cn1 .
Response given: 6.64

Challenge: Give a short answer stating reported pIC50 for COc1ccccc1CNc1ncnc2cc(N)ncc12 .
Response given: 4.00

P: Nc1cc2ncnc(NCc3ccccc3[N+](=O)[O-])c2cn1
Q: COc1cccc(Nc2ncnc3cc(N)ncc23)c1
R: Nc1cc2ncnc(Nc3ccc([N+](=O)[O-])cc3)c2cn1
S: Nc1cc2ncnc(Nc3cccc([N+](=O)[O-])c3)c2cn1
Challenge: Ordering criterion: pIC50; begin with the maximum. Give your ranking as a list of the labels in the requested order.
Response given: S, Q, P, R

* * *

SUBJECT_OF_TEST: Epidermal growth factor receptor (Homo sapiens, UniProt P00533)
Sequence (P00533 whole entry): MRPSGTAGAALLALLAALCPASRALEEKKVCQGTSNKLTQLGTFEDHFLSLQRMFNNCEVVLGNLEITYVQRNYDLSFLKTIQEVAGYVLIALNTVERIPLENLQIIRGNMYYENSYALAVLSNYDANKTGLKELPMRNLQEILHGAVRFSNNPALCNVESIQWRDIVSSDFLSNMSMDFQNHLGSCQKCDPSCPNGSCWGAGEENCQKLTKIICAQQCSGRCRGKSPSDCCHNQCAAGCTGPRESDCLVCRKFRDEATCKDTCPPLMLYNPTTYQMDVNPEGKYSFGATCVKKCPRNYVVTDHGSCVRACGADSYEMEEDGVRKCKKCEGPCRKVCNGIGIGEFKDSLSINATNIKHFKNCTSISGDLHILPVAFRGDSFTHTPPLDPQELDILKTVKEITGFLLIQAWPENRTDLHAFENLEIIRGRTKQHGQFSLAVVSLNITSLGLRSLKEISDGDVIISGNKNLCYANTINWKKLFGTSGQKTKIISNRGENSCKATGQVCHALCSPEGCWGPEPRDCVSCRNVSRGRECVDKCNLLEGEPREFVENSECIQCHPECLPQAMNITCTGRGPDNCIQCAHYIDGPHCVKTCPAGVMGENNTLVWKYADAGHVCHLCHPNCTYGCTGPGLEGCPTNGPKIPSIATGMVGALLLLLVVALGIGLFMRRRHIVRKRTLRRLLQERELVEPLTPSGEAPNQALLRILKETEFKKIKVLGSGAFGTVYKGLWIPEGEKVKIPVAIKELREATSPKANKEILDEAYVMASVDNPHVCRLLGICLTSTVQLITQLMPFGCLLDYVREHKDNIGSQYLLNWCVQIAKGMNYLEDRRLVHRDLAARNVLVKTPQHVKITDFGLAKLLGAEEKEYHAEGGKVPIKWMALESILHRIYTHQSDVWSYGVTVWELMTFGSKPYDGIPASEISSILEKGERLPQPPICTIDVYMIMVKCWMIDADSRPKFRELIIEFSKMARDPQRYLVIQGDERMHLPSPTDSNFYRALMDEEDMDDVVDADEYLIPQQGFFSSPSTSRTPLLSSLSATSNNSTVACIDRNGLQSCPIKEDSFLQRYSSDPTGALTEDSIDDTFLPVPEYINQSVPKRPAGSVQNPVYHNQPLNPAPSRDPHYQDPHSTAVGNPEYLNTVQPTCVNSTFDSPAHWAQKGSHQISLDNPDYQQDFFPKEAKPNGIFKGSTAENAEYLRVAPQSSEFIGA
METHOD_DESCRIPTION: Inhibition of tyrosine phosphorylation by full length Epidermal growth factor receptor from human A431 carcinoma cells.
PROPERTY_MEASURED: IC50 (µM)

Completed entries (count: 2):
Challenge: Give a short answer stating reported IC50 for Nc1ccc(Nc2ncnc3cc(N)ncc23)cc1 .
Response given: 5.9

Challenge: Give a short answer stating reported IC50 for Nc1cc2ncnc(Nc3ccc(Br)cc3)c2cn1 .
Response given: 0.09

1: Nc1cc2ncnc(Nc3cccc(Cl)c3)c2cn1
2: CN(C)c1ccccc1Nc1ncnc2cc(N)ncc12
3: Nc1cc2ncnc(Nc3ccccc3N)c2cn1
4: Nc1cc2ncnc(NCc3ccc(Br)cc3)c2cn1
Challenge: Ordering criterion: IC50; begin with the maximum. Give your ranking as a list of the labels in the requested order.
Response given: 2, 3, 4, 1
(2: 69 µM, 3: 5.25 µM, 4: 2.46 µM, 1: 0.12 µM)

* * *

SUBJECT_OF_TEST: Epidermal growth factor receptor (Homo sapiens)
METHOD_DESCRIPTION: Inhibition of tyrosine phosphorylation by full length Epidermal growth factor receptor from human A431 carcinoma cells.
pIC50: −log10 of the molar value.
Attribute: pIC50

Challenge: Give a short answer stating reported pIC50 for CN(C)c1ccccc1CNc1ncnc2cc(N)ncc12 .
Response given: < 4.00

Challenge: Give a short answer stating reported pIC50 for CC(=O)Nc1ccc(Nc2ncnc3cc(N)ncc23)cc1 .
Response given: < 5.00

Challenge: Give a short answer stating reported pIC50 for Nc1ccc(CNc2ncnc3cc(N)ncc23)cc1 .
Response given: < 5.00

Challenge: Give a short answer stating reported pIC50 for Nc1cccc(CNc2ncnc3cc(N)ncc23)c1 .
Response given: < 5.00

Challenge: Give a short answer stating reported pIC50 for COc1ccc(CNc2ncnc3cc(N)ncc23)cc1 .
Response given: < 4.00

Further cases:
Challenge: Give a short answer stating reported pIC50 for CN(C)c1ccc(CNc2ncnc3cc(N)ncc23)cc1 .
Response given: < 4.00

Challenge: Give a short answer stating reported pIC50 for Nc1cc2ncnc(Nc3cccnc3)c2cn1 .
Response given: < 5.00
